# protocol-summary: inhibitors of TNFa-induced NFkB p65 translocation, primary screen, imaging, HUVEC, MLSMR starter and 10KST1 sets (AID 438);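 also: compound added about 3h40 before a 20 min TNFalpha stimulation; signal is the nuclear over cytoplasmic p65 intensity ratio per well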
# measurement-parameters: HUVEC TNFa-induced p65 nuclear translocation; at 2 µM, 0% TNFa-plus-vehicle, 100% no-TNFa wells
Activity calls are given as the source filed them.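 The calls were made as follows: active = inhibition above 20% together with a positive visual image hit; inconclusive = visual image hit but inhibition not above 20%; inactive = no visual image hit.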 Where a SMILES comes first, the peptide text is derived from it.
Allowed answers: active, inactive

compound	group-label
Cc1cccc(-c2nnn(CC/C(N)=N/O)n2)c1	inactive
CC1CCCN(C(=O)C23CCC(C)(C(=O)C2)C3(C)C)C1 (configuration not stated)	inactive
CC(=O)c1cccc(NC(=O)N2CCCc3ccccc32)c1	inactive
CCCC(NC(=O)CNC(=O)C(C)(C)C)C(=O)O (configuration not stated) (HELM PEPTIDE1{[CC(C)(C)C(=O)[*:2]].G.[CCCC(N[*:1])C(=O)O]}$$$$V2.0)	inactive
COc1ccc(OC)c(NC(=O)CSc2nnc(Cc3cccn3C)n2-c2ccc(F)cc2)c1	inactive

Entry COc1ccccc1CNC(=O)C1CCCN(S(=O)(=O)c2cnc[nH]2)C1 (configuration not stated) : call = ?
active

Field: outcome | Entry: CCOC(=O)C1CCCN(c2c(N3CCN(c4ccccn4)CC3)c(=O)c2=O)C1 (configuration not stated)
inactive

Where do the numbers come from? From PubChem BioAssay.
